assay: gradient 5% acetonitrile 3 min, to 50% in 2 min, to 85% in 15 min, held 3 min, 100 µL/min; details: column: Zorbax Extend-C18 2.1 x 50 mm; eluents: water / acetonitrile, 0.1% formic acid
EXPERIMENTAL ENDPOINT: RP-LC retention time (s)

Cc1ccccc1NC(=O)Cc1csc2nc(-c3cccc(Br)c3)cn12 :: 948
CC1CCCN(CC2CCN(S(=O)(=O)Cc3ccc(Cl)cc3)CC2)C1 (stereo not given) :: 690
COc1cccc(S(=O)(=O)N2CCC(N3CCN(Cc4ccccc4)C(=O)C3=O)CC2)c1 :: 763

a. CCNC(=O)N1CC(c2nc(-c3cccnc3)no2)C2(CCOCC2)C1 (stereo not given)
b. CCCCN(C(=O)c1ccc(C)cc1)C1(C(=O)NCc2ccccc2)CCN(C(C)=O)CC1
Of a and b , whose reported RP-LC retention time is the larger number? Write down the label of the entry you select.
b

1. CCOc1ccc(NC(=O)NCCc2cn(CC)c3ncccc23)cc1
2. COC(=O)C1=C(C)NC(SCC(=O)NC2CCCCC2)=C(C#N)C1c1ccccc1F (stereo not given)
Looking only at measured RP-LC retention time, which entry is lower, 1 or 2 ? State the label of the item chosen.
1

a. Cc1nc(C)c(C(=O)NCC2CCCCC(=O)N2)s1 (stereo not given)
b. CSc1ccc(CNC(=O)Cn2c(=O)c3cccn3c3ccc(F)cc32)cc1
In terms of reported RP-LC retention time, does a or b have the smaller number? API: response body contains the label of the selected item.
a

====

experiment: gradient 5% acetonitrile 3 min, to 50% in 2 min, to 85% in 15 min, held 3 min, 100 µL/min; details: column: Zorbax Extend-C18 2.1 x 50 mm; eluents: water / acetonitrile, 0.1% formic acid
EXPERIMENTAL ENDPOINT: RP-LC retention time (s)

CCCOc1nccnc1N1CCC(NC(=O)Cc2cccnc2)C1 (stereo not given) :: 671
O=C(Cc1ccc(F)cc1)NC(c1ccccc1)c1nnc(N2CCCC2)o1 (stereo not given) :: 780
COc1cccc(S(=O)(=O)N2CCC(CN3CCCCCC3)CC2)c1 :: 642
Cc1ccccc1NS(=O)(=O)c1cc(-c2[nH]ncc2C(=O)N2CCCC2)oc1C :: 700
CN(CCc1noc(-c2ccc(Cl)cc2)n1)C(=O)Nc1ccccc1F :: 952
C[C@@H]1CCNC(=O)c2cc3ccc(C(=O)Nc4nc5ccccc5n4CCCN(C)C)cc3n21 :: 642
Cc1ccc(NC(=O)c2cc(C)n3nc(C)cc3n2)cc1 :: 994
COc1ccc(C(=O)Nc2nc(-c3ccc4c(c3)N(C)C(=O)CO4)c(C)s2)cc1 :: 967

a. CC(=O)Nc1onc(C)c1-c1ccc(C)c(S(=O)(=O)Nc2ccc(C)cc2Cl)c1
b. CCOC(=O)Cc1csc(NS(=O)(=O)c2cn(C)nc2C)n1
Higher RP-LC retention time: a or b ? Returns: label corresponding to the selected item.
a

====

experiment: gradient 5% acetonitrile 3 min, to 50% in 2 min, to 85% in 15 min, held 3 min, 100 µL/min; conditions: column: Zorbax Extend-C18 2.1 x 50 mm; eluents: water / acetonitrile, 0.1% formic acid
EXPERIMENTAL ENDPOINT: RP-LC retention time (s)

Answered examples (5):
O=C(Cc1ccccc1F)N1CCc2cc(-c3ccno3)ccc21 :: 961
CCN(C(=O)Cn1ccn2nc(-c3ccccc3)c(CO)c2c1=O)c1ccccc1 :: 838
COCCCNC(=O)c1ccc(-c2nc3cccnc3n(C3CCCC3)c2=O)cc1 :: 867
COc1cc(C(=O)N2CCC3(CC2)NC(=O)c2cc(F)ccc2N3C)cc(OC)c1OC :: 655
CCNC(=O)N1CC(Oc2cccc(-c3nc(-c4ccccc4)no3)c2)C1 :: 939

P. COc1cc(NC(=O)N(C)CCc2noc(COc3ccc(F)cc3)n2)cc(OC)c1
Q. CCCOc1nc2ccccc2nc1N1CCCC(C(=O)N2CCN(c3ccccc3F)CC2)C1 (centres undefined)
Which of the two items, P and Q , has the greater recorded RP-LC retention time? API: response body contains the label of the selected item.
Q
(Q: 1380 s, P: 874 s)
